# System: RXF 393 renal
# methodSummary: NCI-60 one-dose screen, 48 h
# measurementConditions: 10 µM unless noted
The panel holds about 83,000 compounds, 20% with a hit somewhere; the sample as a whole holds those more often. Activity calls are given as the source filed them. The calls were made as follows: active = growth percent below 10; inactive = the rest.
Respond with a class label; see active, inactive

**Q:** Recorded test outcome, item C=CCSc1nnc(NC(=O)CCl)s1
**A:** inactive

**Q:** Recorded test outcome, item CCN(CC)S(=O)(=O)c1ccc(S(=O)(=O)N2CCC[C@@H](C(=O)N3CCN(c4nc(C(C)C)no4)CC3)C2)cc1
**A:** inactive

**Q:** Recorded test outcome, item O=c1[nH]c(-c2ccccc2)nc2sc3cc(O)ccc3c12
**A:** inactive

**Q:** Recorded test outcome, item CCCCCCCCCCC(CN(CC)CC)C(O)c1ccccc1 (configuration not stated)
**A:** active

**Q:** Recorded test outcome, item COc1ccc(Nc2ncc(Br)c(NCCCNC(=O)c3cccs3)n2)cc1
**A:** active

**Q:** Recorded test outcome, item Cc1ccc(CNc2ccc3nc(CCC4CCCCC4)[nH]c3c2)cc1
**A:** inactive

**Q:** Recorded test outcome, item O=C(OC(CO)C(=O)NC12CC3CC(CC(C3)C1)C2)c1ccc(Cl)cc1 (configuration not stated)
**A:** inactive

**Q:** Recorded test outcome, item O=C1C(Cl)=C(NCCCCCCNC2=C(Cl)C(=O)c3ccccc3C2=O)C(=O)c2ccccc21
**A:** inactive

**Q:** Recorded test outcome, item COc1cc2c(cc1OCCCN1CCN(CCCOc3cc4c(cc3OC)C(=O)N3CCC[C@H]3C=N4)CC1)C=CC(C)(C)O2
**A:** active

**Q:** Recorded test outcome, item c1cc2c(ccc3[nH]c(-c4ccc5[nH]ncc5c4)c4c(c32)CCCC4)n1
**A:** inactive

**Q:** Recorded test outcome, item COc1c(C(=O)Nc2ccc(C)c(Br)c2)ccc2ccccc12
**A:** inactive

**Q:** Recorded test outcome, item COc1ccc2c(c1)CC[C@H](O)/C2=C/c1cc(OC)c(OC)c(OC)c1
**A:** inactive

**Q:** Recorded test outcome, item CCn1cc(C(=O)NNC(=S)Nc2ccc(C)cc2)c(=O)c2ccc(C)nc21
**A:** inactive

**Q:** Recorded test outcome, item COC(=O)c1nc(-c2ccccc2)oc1S(=O)(=O)Cc1ccccc1
**A:** inactive

**Q:** Recorded test outcome, item COC(=O)C1Cc2ccccc2CN1C(=O)c1ccc2c(c1)Cc1ccccc1-2 (configuration not stated)
**A:** inactive

**Q:** Recorded test outcome, item CCOc1nc(-c2ccccc2)cc2c(O)c(C(=O)N/N=C/c3ccccc3)[nH]c(=O)c12
**A:** inactive

**Q:** Recorded test outcome, item C=CCOC(=O)Nc1cccn([C@H](Cc2ccccc2)C(=O)NCCC(C)C)c1=O
**A:** inactive

**Q:** Recorded test outcome, item Clc1cc(Cl)c(Cl)c(-c2nnc(SCc3ccncc3Br)o2)c1
**A:** inactive

**Q:** Recorded test outcome, item COc1cc2c(c(OC)c1OC)CCC(c1cccc(NC(=O)c3ccc(Br)cc3)c1)O2 (configuration not stated)
**A:** inactive

**Q:** Recorded test outcome, item CCSc1oc(-c2ccccc2)nc1[P+](c1ccccc1)(c1ccccc1)c1ccccc1
**A:** active

**Q:** Recorded test outcome, item COc1ccc(Nc2nc(-c3cc(O)c(C)c(C)c3O)cs2)cc1
**A:** inactive

**Q:** Recorded test outcome, item COc1ccc(/C=C/C(=O)c2ccc(Nc3ccnc4cc(Cl)ccc34)cc2)cc1
**A:** inactive

**Q:** Recorded test outcome, item COc1ccc(CNc2c3ccccc3nc3ccccc23)cc1
**A:** inactive

**Q:** Recorded test outcome, item COC(=O)c1c(C)nc(C)c2c1C(=O)C(Br)=C(NCc1ccccc1)C2=O
**A:** inactive

**Q:** Recorded test outcome, item COc1ccc(-c2nc3c(ncc4ccc(=O)[nH]c43)s2)cc1
**A:** inactive

**Q:** Recorded test outcome, item CCN(C)S(=O)(=O)Nc1cccc(Nc2ncnc3cc(NC(=O)CCl)ccc23)c1Cl
**A:** active

**Q:** Recorded test outcome, item Cn1c(=O)cc2c3c(c(NCCCO)ccc31)C(=O)c1ccccc1-2
**A:** inactive

**Q:** Recorded test outcome, item C#CCOc1ccc2ncnc(Nc3ccc(NC(=O)C=C)cc3)c2c1
**A:** active

**Q:** Recorded test outcome, item Cc1ccc2c(c1)=C/C(=C\c1cc(-c3ccccc3)oc1O)C(=O)N=2
**A:** inactive

**Q:** Recorded test outcome, item CN(C)S(=O)(=O)c1cccc(C(=O)Nc2nc(-c3ccc(F)c(F)c3)cs2)c1
**A:** inactive

**Q:** Recorded test outcome, item Cc1[nH]c(C(=O)Nc2ccccc2OC2CCNCC2)c(Cl)c1Cl
**A:** active

**Q:** Recorded test outcome, item O=C(/C=C/c1cccc(Cl)c1)c1ccc(Nc2nc(Nc3ccc(F)cc3)nc(Nc3ccc(Cl)cc3)n2)cc1
**A:** active

**Q:** Recorded test outcome, item O=C(Nc1cccc(-c2ccc(N3CCOCC3)nn2)c1)Nc1cccc(C(F)(F)F)c1
**A:** inactive

**Q:** Recorded test outcome, item COc1ccc(C(=O)C/C(=C\c2ccc(Cl)cc2)C(=O)NCc2ccccc2)cc1
**A:** inactive

**Q:** Recorded test outcome, item Nc1nc2ccccc2c2c(=O)c3cccc(Cl)c3sc12
**A:** inactive

**Q:** Recorded test outcome, item CCN(CC)Cc1cc(C=C2C(=O)NC(=S)NC2=O)cc(OC)c1O
**A:** inactive

**Q:** Recorded test outcome, item CCCCCCCCCCCCCCCCCCOc1ccccc1CC(=O)OCC[N+](C)(C)C
**A:** active

**Q:** Recorded test outcome, item OCCn1cc(-c2nc(-c3c[nH]c4ncccc34)cs2)c2cc(F)ccc21
**A:** inactive

**Q:** Recorded test outcome, item O=C1Nc2ccccc2/C1=C/c1nc2ccccc2c(=O)[nH]1
**A:** inactive

**Q:** Recorded test outcome, item NS(=O)(=O)c1ccccc1NC(=O)Nc1nc2ccccc2s1
**A:** inactive

**Q:** Recorded test outcome, item O=C(CSc1oc(-c2ccccc2)nc1S(=O)(=O)c1ccccc1)Nc1ccc(F)cc1
**A:** inactive

**Q:** Recorded test outcome, item O=C(NCc1ccc(Cl)cc1Cl)C1CCC(=O)N1c1cccs1 (configuration not stated)
**A:** inactive

* * *

# System: A498 renal
# methodSummary: NCI-60 one-dose screen, 48 h
# measurementConditions: 10 µM unless noted
This is part of a sample that, as a whole, favours compounds with a hit. Of some 83,000 tested, about 20% had one in any assay. The source made the active and inactive calls. The calls were made as follows: active = growth percent below 10; inactive = the rest.
Respond with a class label; see class 1 (active), class 0 (inactive)

**Q:** Recorded test outcome, item CCCNC(=O)Nc1ccc2cc3ccc(NC(=O)NCCC)cc3nc2c1
**A:** class 0

**Q:** Recorded test outcome, item Cc1ccc(C[P+](c2ccccc2)(c2ccccc2)c2ccccc2)cc1
**A:** class 0

**Q:** Recorded test outcome, item Cc1ccccc1/C=C/C(=O)c1cccc(OCCCOc2cccc(C(=O)/C=C/c3ccccc3C)c2)c1
**A:** class 0

**Q:** Recorded test outcome, item CN(C)S(=O)(=O)c1cccc(C(=O)Nc2nc(-c3ccc(F)c(F)c3)cs2)c1
**A:** class 0

**Q:** Recorded test outcome, item Cc1c(O)cc(-c2cnc(Nc3ccccc3)s2)c(O)c1C
**A:** class 0

**Q:** Recorded test outcome, item CCCCNCCCCCNc1cc(OC)cc2cccnc12
**A:** class 0

**Q:** Recorded test outcome, item Nc1nc(-c2ccc(Cl)cc2)nc2c1sc(=S)n2-c1ccccc1
**A:** class 0

**Q:** Recorded test outcome, item CN(C)Cc1ccc(O)c(C(=O)O)c1
**A:** class 0

**Q:** Recorded test outcome, item O=C1Nc2ccccc2/C1=C/c1nc2ccccc2c(=O)[nH]1
**A:** class 0

**Q:** Recorded test outcome, item COC(=O)c1nc(-c2ccc(C)cc2)oc1S(=O)(=O)c1cccc(OC)c1
**A:** class 0

**Q:** Recorded test outcome, item O=C1C(=O)N(Cc2ccc(-c3ccccc3)cc2)c2ccc(OC(F)(F)F)cc21
**A:** class 0

**Q:** Recorded test outcome, item Cc1nc2sc(C(=O)Nc3cccc4ccccc34)c(N)c2cc1C(O)c1ccccc1 (stereo unspecified)
**A:** class 1

**Q:** Recorded test outcome, item CC(C)=CCCC(C)c1ccc(C)c2c1OCN(CCCCCO)C2 (stereo unspecified)
**A:** class 0

**Q:** Recorded test outcome, item CSc1nc2ncc([N+](=O)[O-])c(=O)n2[nH]1
**A:** class 0

**Q:** Recorded test outcome, item N#Cc1nc(-c2ccc(F)cc2)oc1S(=O)(=O)N1CCOCC1
**A:** class 0

**Q:** Recorded test outcome, item O=C1c2ccc3c4c5ccc(c24)C(=O)N1CCCOCCCCOCCCNCc1ccc(cc1)CNCCCOCCCCOCCCN(C3=O)C5=O
**A:** class 0

**Q:** Recorded test outcome, item O=C(Nc1cccc(-c2ccc(Cl)c(C(F)(F)F)c2)c1)C1CCN(Cc2cccc3cccnc23)CC1
**A:** class 0

**Q:** Recorded test outcome, item COc1cc2c(cc1OCCCN1CCN(CCCOc3cc4c(cc3OC)C(=O)N3CCC[C@H]3C=N4)CC1)C=CC(C)(C)O2
**A:** class 1

**Q:** Recorded test outcome, item CCc1ncnc2c1ccn2C(C)c1ccc(OC)c(F)c1 (stereo unspecified)
**A:** class 0

**Q:** Recorded test outcome, item COc1ccc(C/C(C)=C(\c2ccc(Cl)cc2)c2ccc(OCCN3CCCCC3)cc2)cc1
**A:** class 0

**Q:** Recorded test outcome, item Nc1n[nH]c2ccc([C@H]3[C@@H]4C5CCC(C5)[C@@H]4c4c(ccc5[nH]ncc45)N3S(=O)(=O)C3CC3)cc12 (stereo partly specified)
**A:** class 1

**Q:** Recorded test outcome, item NC(=O)C(=O)c1ccccc1NC=O
**A:** class 0

**Q:** Recorded test outcome, item Cn1cc(C(=O)c2nc(-c3c[nH]c4ccccc34)no2)c2cc(F)ccc21
**A:** class 0

**Q:** Recorded test outcome, item N#Cc1c(-c2ccc(Cl)cc2)c(C#N)c2c(C#N)c(N)nn2c1N
**A:** class 0

**Q:** Recorded test outcome, item N#Cc1ccc(O)c(C2=NCC(c3ccccc3)O2)c1 (stereo unspecified)
**A:** class 0

**Q:** Recorded test outcome, item COc1ccc(CNc2c3ccccc3nc3ccccc23)cc1
**A:** class 0

**Q:** Recorded test outcome, item COc1cc(OC)c(/C=C/C(=O)c2c(OC)cccc2OC)c(OC)c1
**A:** class 0

**Q:** Recorded test outcome, item COc1ccc(C(=O)c2cc3c(N)c(C(=O)Nc4ccc(C)cc4)sc3nc2C)cc1
**A:** class 0

**Q:** Recorded test outcome, item CC(C)(C)[Si](C)(C)OC1[C@@H](CNC(=O)NC(=O)NC(N)=O)O[C@@H](n2cnc3c(NC(=O)Nc4ccccc4)ncnc32)[C@H]1O[Si](C)(C)C(C)(C)C (stereo partly specified)
**A:** class 0

**Q:** Recorded test outcome, item COc1cc(OC)c(NC(=O)c2cc3ccccc3cc2O)cc1Cl
**A:** class 0

**Q:** Recorded test outcome, item CCN(CC)CCCCCNc1cc(OC(=O)c2ccc(Cl)cc2)cc2cccnc12
**A:** class 0

**Q:** Recorded test outcome, item O=c1c2cnn(-c3ccccc3)c2n2c(CN3CCOCC3)nnc2n1-c1ccccc1
**A:** class 0

**Q:** Recorded test outcome, item COCCn1cc(-c2nc(-c3cc4cccnc4[nH]3)cs2)c2cc(OC)ccc21
**A:** class 1

**Q:** Recorded test outcome, item O=C(N/N=C/c1c(Cl)cccc1Cl)c1cccnc1Nc1cccc(C(F)(F)F)c1
**A:** class 0

**Q:** Recorded test outcome, item OCCn1cc(-c2nc(-c3c[nH]c4ncccc34)cs2)c2ccccc21
**A:** class 0

**Q:** Recorded test outcome, item O=C(O)CCN1C(=O)/C(=C/C(Cl)=C/c2ccccc2)SC1=S
**A:** class 0

**Q:** Recorded test outcome, item CC(=O)N1N=C(c2ccc(Nc3nc(Nc4ccccc4)nc(Nc4ccccc4)n3)cc2)CC1c1ccccc1 (stereo unspecified)
**A:** class 0

**Q:** Recorded test outcome, item N=C(N)c1ccc(-c2ccc(-c3ccc(Cl)cc3Cl)s2)cc1
**A:** class 0

**Q:** Recorded test outcome, item C=CCN=c1sc2c(n1NC(=O)c1cc3ccc1CCc1ccc(cc1)CC3)C(=O)c1ccccc1C2=O
**A:** class 0

**Q:** Recorded test outcome, item Cc1cc(C(=O)Nc2ncc(Cc3cccc(C(F)(F)F)c3)s2)c2ccccc2n1
**A:** class 1

**Q:** Recorded test outcome, item O=C1/C(=C/c2ccccc2Br)COc2ccc(O)cc21
**A:** class 0

Source listed as PubChem BioAssay (NCI).
